# credit: PubChem BioAssay AID1159580

# EXPERIMENTAL DETAILS: chemical genetic growth profiling, strain panel (AID 1159580);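 note: tested at 20 µM; growth read once vehicle control cultures reached saturation at 30 °C; 1 = growth at the plate median or of vehicle wells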
# DETAILS: S. cerevisiae deletion strains, growth OD, locus YHR027C, strain rpn1, hits give low values
In all, about 5,500 compounds went through this assay and about 2,000 (36%) were called active. Another 18% or so got no clear call; they are omitted. The list shows a part of the results.
Cut-off 1 on normalized growth: below means Fulfilled, at or above means Not fulfilled.

Study these solved cases before continuing.
CN(C)CCCO[C@H]1[C@@H](C(O)CO)OC2OC(C)(C)O[C@@H]21 (stereo not given in full)	Fulfilled
CCn1cc(C(=O)O)c(=O)c2ccc(C)nc21	Fulfilled

Q: Quick check: does Cc1cccc(CN2CCN(C(c3ccccc3)c3ccc(Cl)cc3)CC2)c1 (stereo not given) have normalized growth under 1?
Result: Fulfilled

Q: Does this compound meet the criterion normalized growth < 1? "S=c1[nH]c2ccccc2s1"
Result: Fulfilled

Q: hey, is normalized growth for CC[C@@H](C(=O)[C@@H](C)[C@@H](O)[C@H](C)[C@@H]1O[C@@H]([C@@H](CC)C(=O)O)CC[C@@H]1C)[C@H]1OC2(C=C[C@@H](O)[C@]3(CC[C@@](C)([C@H]4CC[C@](O)(CC)[C@H](C)O4)O3)O2)[C@H](C)C[C@@H]1C (stereo not given in full) lower than 1 or not?
Result: Fulfilled

Q: Input CC1(C)CC2C1CCC1(C)OC2(C)CCC1O (stereo not given) ; condition: normalized growth strictly below 1. Does it hold?
Result: Not fulfilled

Q: Threshold test, normalized growth < 1: CC[C@@]1(C2O[C@@H](C3O[C@@](O)(CC)[C@H](C)C[C@@H]3C)C[C@@H]2C)CC[C@H]([C@]2(C)CCC3(C[C@H](O)[C@@H](C)[C@@H]([C@H](C)[C@@H](OC)[C@H](C)C(=O)O)O3)O2)O1 (stereo not given in full)
Result: Not fulfilled

Q: Say whether its normalized growth is strictly beneath 1. Entry: CCCCC(CC)CN=C(N)NC(N)=NCCCCCCN=C(N)NC(N)=NCC(CC)CCCC (stereo not given)
Result: Fulfilled

====

# EXPERIMENTAL DETAILS: chemical genetic growth profiling, strain panel (AID 1159580);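 note: tested at 20 µM; growth read once vehicle control cultures reached saturation at 30 °C; 1 = growth at the plate median or of vehicle wells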
# DETAILS: S. cerevisiae deletion strains, growth OD, locus YER155C, strain BEM2 (second series)
The whole screen tested about 5,500 compounds, of which about 2,000 (36%) were called active. Another 18% or so got no clear call; they are omitted. Rule as the data show it: active = normalized growth mostly below about 0.91 (no sharp cut-off); inconclusive = no clear call, values can overlap the other calls; inactive = mostly above about 0.92. This is one part of the list.
// allowed return values: active, inactive

CC(=O)OCC(=O)[C@@]12OC(C)(C)O[C@@H]1CC1C3C[C@H](F)C4=CC(=O)C=C[C@]4(C)[C@@]3(F)[C@@H](O)C[C@@]12C (some centres undefined)	inactive
c1ccc2[nH]c(-c3cscn3)nc2c1	active
COc1ccccc1OCC(O)CN1CCN(CC(=O)Nc2c(C)cccc2C)CC1 (centres undefined)	inactive

Q: Record request — test call for Cc1cccc(CN2CCN(C(c3ccccc3)c3ccc(Cl)cc3)CC2)c1 (centres undefined)
Result: active

====

# maps each entry to its normalized growth
# EXPERIMENTAL DETAILS: chemical genetic growth profiling, strain panel (AID 1159580);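 note: tested at 20 µM; growth read once vehicle control cultures reached saturation at 30 °C; 1 = growth at the plate median or of vehicle wells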
# DETAILS: S. cerevisiae deletion strains, growth OD, locus YDL017W, strain CDC7, hits give low values
In all, about 5,500 compounds went through this assay and about 2,000 (36%) were called active. About 18% were inconclusive and are not listed. The list shows a part of the results.
Enter a number only.

Nc1cc(-c2ccc(OC(F)(F)F)cc2)nn1-c1ccc(Cl)c(Cl)c1	0.994

Q: Supply normalized growth value. Item: "Cc1cc(C(=O)O/N=C(/N)c2ccc([N+](=O)[O-])o2)no1"
Result: 0.963

Q: Give recorded normalized growth. "Clc1ccc(-c2noc(CSC3=NCCN3)n2)cc1"
Result: 0.986

Q: Quickly give me recorded normalized growth for "O=C(Nc1cccc(C(F)(F)F)c1)Oc1ccc(F)cc1Cl"
Result: 0.985
